Molecular target: androgen receptor (AR) splicing variant AR-v7 (Homo sapiens)
Construct: The degradation activity of compounds on AR-v7 in 22RV1 cells; host or cells: 22RV1 cells
Sequence (P10275 1-644 isoform P10275-3): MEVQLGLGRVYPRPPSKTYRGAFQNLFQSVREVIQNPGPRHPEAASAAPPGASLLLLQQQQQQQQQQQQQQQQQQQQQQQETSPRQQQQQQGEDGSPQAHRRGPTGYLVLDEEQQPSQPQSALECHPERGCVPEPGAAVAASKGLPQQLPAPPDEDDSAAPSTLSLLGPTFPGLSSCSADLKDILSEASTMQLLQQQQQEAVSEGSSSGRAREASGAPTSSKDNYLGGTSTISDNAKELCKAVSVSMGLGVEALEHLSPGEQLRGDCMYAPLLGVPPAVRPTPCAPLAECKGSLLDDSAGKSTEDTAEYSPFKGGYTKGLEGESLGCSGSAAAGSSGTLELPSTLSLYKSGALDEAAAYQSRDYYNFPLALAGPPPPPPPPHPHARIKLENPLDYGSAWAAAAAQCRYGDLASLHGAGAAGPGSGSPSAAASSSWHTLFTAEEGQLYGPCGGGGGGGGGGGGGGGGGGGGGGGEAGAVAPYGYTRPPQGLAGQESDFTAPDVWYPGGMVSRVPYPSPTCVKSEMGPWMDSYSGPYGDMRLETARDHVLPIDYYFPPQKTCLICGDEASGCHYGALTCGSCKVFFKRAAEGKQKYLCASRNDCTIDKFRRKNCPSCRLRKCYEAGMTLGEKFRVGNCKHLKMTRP
Assay: Degradation activity on androgen receptor splicing variant AR-v7 in 22RV1 cells (ELISA)
Format: cell-based
Conditions: AR-v7 degradation in 22RV1 cells, 48 h, class symbols
// reported DC50 per item

| compound | DC50 |
| --- | --- |
| CC(C)(c1ccc(CCNc2ccc3c(c2)C(=O)N(C2CCC(=O)NC2=O)C3=O)cc1)c1ccc(OCc2ccnc(N3CC4(COC4)C3)n2)cc1 (stereo not drawn) | 101 to 1000 nM |
| CC(Oc1ccc(C(C)(C)c2ccc(O[C@H]3C[C@H](Nc4ccc5c(c4)C(=O)N(C4CCC(=O)NC4=O)C5=O)C3)cc2)cc1)c1ncnc(N2CC3(COC3)C2)c1F (stereo partly drawn) | < 10 nM |
| CNC(=O)c1nccc(COc2ccc(C(C)(C)c3ccc(O[C@H]4C[C@H](Nc5ccc6c(c5)C(=O)N(C5CCC(=O)NC5=O)C6=O)C4)cc3)cc2)n1 (stereo partly drawn) | 11 to 100 nM |
| CC(C)(c1ccc(OCc2ccnc(-c3ncon3)n2)cc1)c1ccc(O[C@H]2C[C@H](Nc3ccc4c(c3)C(=O)N(C3CCC(=O)NC3=O)C4=O)C2)cc1 (stereo partly drawn) | < 10 nM |
| CC(O)c1ncc(Oc2ccc(C3(c4ccc(O[C@H]5C[C@H](Nc6ccc7c(c6)C(=O)N(C6CCC(=O)NC6=O)C7=O)C5)cc4)CCCC3)cc2)cn1 (stereo partly drawn) | < 10 nM |
| CC(=O)c1nccc(COc2ccc(C(C)(C)c3ccc(OC4CCC5(C4)CN(c4ccc6c(c4)C(=O)N(C4CCC(=O)NC4=O)C6=O)C5)cc3)cc2)n1 (stereo not drawn) | 101 to 1000 nM |
| CC(C)(c1ccc(Oc2cnc(-n3ccnn3)nc2)cc1)c1ccc(O[C@H]2C[C@H](Nc3ccc4c(c3)C(=O)N(C3CCC(=O)NC3=O)C4=O)C2)cc1 (stereo partly drawn) | 11 to 100 nM |
| Cc1nsc(Oc2ccc(C(C)(C)c3ccc(O[C@H]4C[C@H](Nc5ccc6c(c5)C(=O)N(C5CCC(=O)NC5=O)C6=O)C4)cc3)cc2)n1 (stereo partly drawn) | 11 to 100 nM |
| Cc1noc(-c2nccc(Oc3ccc(C(C)(C)c4ccc(O[C@H]5C[C@H](Nc6ccc7c(c6)C(=O)N(C6CCC(=O)NC6=O)C7=O)C5)cc4)cc3)n2)n1 (stereo partly drawn) | < 10 nM |
| Cc1nc(-c2nccc(Oc3ccc(C(C)(C)c4ccc(O[C@H]5C[C@H](Nc6ccc7c(c6)C(=O)N(C6CCC(=O)NC6=O)C7=O)C5)cc4)cc3)n2)no1 (stereo partly drawn) | < 10 nM |
| CC(C)(c1ccc(OCc2ccnc(N3CC4(COC4)C3)n2)cc1)c1ccc(C(=O)NCCNc2ccc3c(c2)C(=O)N(C2CCC(=O)NC2=O)C3=O)cc1 (stereo not drawn) | 11 to 100 nM |
| CC(C)(c1ccc(OCc2ccnc(N3CC4(COC4)C3)n2)cc1)c1ccc(O[C@H]2CCC[C@H]2Nc2ccc3c(c2)C(=O)N(C2CCC(=O)NC2=O)C3=O)cc1 (stereo partly drawn) | 1000 to 5000 nM |

Hello, the source for this data is patent US20250051347A1, in case you need it.
